Listing of recorded MIC by entry.
- System: Escherichia coli
- Assay: Antibacterial activity against Escherichia coli 1285 harboring beta-lactamase CMY-33 gene by Etest method
- Assay type: functional
Just the number please, in µg/mL, no unit attached.

CO/N=C(\C(=O)N[C@@H]1C(=O)N2C(C(=O)[O-])=C(C[N+]3(C)CCCC3)CS[C@H]12)c1csc(N)n1 [CEFEPIME] :: 96

We next turn to a different compound, shown below.
Input line: # MIC lookup, item C[C@H]1[C@H](NC(=O)/C(=N\OC(C)(C)C(=O)O)c2csc(N)n2)C(=O)N1S(=O)(=O)O [AZTREONAM]
Output line: 64
